Read-out: Pyruvate Dehydrogenase Kinase 4 (PDK4), PDK4 (gene 5166)
Experiment Description: LTEA_HepaRG_PDK4: Life Technologies and Expression Analysis (LTEA) Assay for Pyruvate Dehydrogenase Kinase 4 (PDK4) using HepaRG (AID 2283525)
Details: mRNA level, 48 h; actives raise or lower the signal
Activity calls are given as the source filed them. The calls were made as follows: active = hit-call score of the fitted dose curve at least 0.9, where 1 is the maximum; inactive = score below 0.9.
# output must be one of label 1 = active, label 0 = inactive

O=[N+]([O-])C(CO)(CO)CO :: label 0
C=CCc1ccc(O)c(OC)c1 :: label 0
CCCCCCCCCCCC(=O)OC :: label 0

// next entry
## Task What was the test verdict on CC(C)(C)c1cc(O)c(C(C)(C)C)cc1O ?
## Result label 0
